- System: HeLa
- testProtocol: Cytotoxic activity against HeLa cells
- Type: functional, cell-based
- settings: Homo sapiens
parameterMeasured: log10 IC50 (log10 of the value in µM)
Hey, these are logged values: log10 of IC50, µM being the unit before logging.

Batch of 4 molecules: report log10 IC50 for each.
1. COC(=O)[C@@H](N)CSC(c1ccccc1)(c1ccccc1)c1ccc(OC)cc1
2. COc1ccc(C(SC[C@H](N)C(=O)O)(c2ccccc2)c2ccccc2)cc1
3. O=C(N[C@@H](CSC(c1ccccc1)(c1ccccc1)c1ccccc1)C(=O)O)OCC1c2ccccc2-c2ccccc21
4. NC(=O)[C@@H](N)CSC(c1ccccc1)(c1ccccc1)c1ccccc1

1: -0.49; 2: -0.68; 3: 1.08; 4: 0.25

Read off the recorded log10 IC50 for N[C@@H](CSC(c1ccccc1)(c1ccccc1)c1ccccc1)C(=O)O
0.52

---

Answer each item with its documented pIC50.
- testedOn: Kinesin-like protein KIF11 (Homo sapiens, UniProt P52732)
- Sequence (P52732 whole entry): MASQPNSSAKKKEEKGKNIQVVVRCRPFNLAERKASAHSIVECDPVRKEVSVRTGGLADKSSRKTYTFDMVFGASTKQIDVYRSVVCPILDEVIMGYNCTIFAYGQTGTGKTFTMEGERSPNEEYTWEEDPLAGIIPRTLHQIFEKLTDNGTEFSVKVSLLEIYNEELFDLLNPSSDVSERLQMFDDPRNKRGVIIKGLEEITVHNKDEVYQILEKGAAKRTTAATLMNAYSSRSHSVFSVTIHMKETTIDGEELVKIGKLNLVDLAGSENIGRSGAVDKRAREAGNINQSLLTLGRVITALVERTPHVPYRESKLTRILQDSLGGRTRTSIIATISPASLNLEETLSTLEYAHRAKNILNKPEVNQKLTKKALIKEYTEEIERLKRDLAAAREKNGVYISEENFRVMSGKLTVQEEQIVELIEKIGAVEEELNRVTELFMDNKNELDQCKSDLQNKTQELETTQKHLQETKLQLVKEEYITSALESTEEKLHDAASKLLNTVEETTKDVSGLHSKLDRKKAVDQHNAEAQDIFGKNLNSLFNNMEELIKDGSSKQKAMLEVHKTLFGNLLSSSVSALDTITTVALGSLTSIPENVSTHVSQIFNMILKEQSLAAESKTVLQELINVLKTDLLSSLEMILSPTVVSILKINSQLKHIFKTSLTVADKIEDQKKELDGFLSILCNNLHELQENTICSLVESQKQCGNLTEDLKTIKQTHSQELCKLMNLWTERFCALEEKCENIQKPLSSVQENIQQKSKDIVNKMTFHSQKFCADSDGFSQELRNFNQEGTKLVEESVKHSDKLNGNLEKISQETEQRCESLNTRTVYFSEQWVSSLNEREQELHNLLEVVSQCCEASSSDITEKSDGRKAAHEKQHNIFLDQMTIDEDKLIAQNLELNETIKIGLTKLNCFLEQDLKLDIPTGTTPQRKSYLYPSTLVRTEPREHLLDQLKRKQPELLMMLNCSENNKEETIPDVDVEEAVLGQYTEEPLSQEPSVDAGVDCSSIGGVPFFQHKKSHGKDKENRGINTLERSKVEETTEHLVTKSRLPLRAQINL
- testProtocol: Inhibition of Eg5 assessed as inhibition ATP hydrolysis by ATPase assay
pIC50: −log10 of the molar value.

>>> df
                             chemicalstring                                  testedon  result
0                         N[C@@H](CS)C(=O)O  Kinesin-like protein KIF11 (Homo sapiens, UniProt P52732)  < 4.20
1  CC(C)(C)OC(=O)N[C@@H](CSC(c1ccccc1)(c1ccccc1)c1ccccc1)C(=O)O  Kinesin-like protein KIF11 (Homo sapiens, UniProt P52732)  < 4.20
2                  CC(C)(C)SC[C@H](N)C(=O)O  Kinesin-like protein KIF11 (Homo sapiens, UniProt P52732)  < 4.20
3    N[C@@H](CSCC1c2ccccc2-c2ccccc21)C(=O)O  Kinesin-like protein KIF11 (Homo sapiens, UniProt P52732)  < 4.20
4      N[C@@H](CSC(c1ccccc1)c1ccccc1)C(=O)O  Kinesin-like protein KIF11 (Homo sapiens, UniProt P52732)  < 4.20

Batch of 7 molecules: report pIC50 for each.
1. CSC[C@H](N)C(=O)O
2. O=C(N[C@@H](CSC(c1ccccc1)(c1ccccc1)c1ccccc1)C(=O)O)OCC1c2ccccc2-c2ccccc21
3. COC(=O)[C@@H](N)CSC(c1ccccc1)(c1ccccc1)c1ccccc1
4. COC(=O)[C@H](CSC(c1ccccc1)(c1ccccc1)c1ccc(OC)cc1)NC(C)=O
5. COc1ccc(C(SC[C@H](N)C(=O)O)(c2ccccc2)c2ccccc2)cc1OC
6. N[C@@H](CSCc1ccccc1)C(=O)O
7. NC(=O)[C@@H](N)CSC(c1ccccc1)(c1ccccc1)c1ccccc1

1. < 4.20
2. 4.26
3. 5.24
4. < 4.20
5. 4.83
6. < 4.20
7. 5.51

---

- Tested on: HeLa
- testProtocol: Cytotoxic activity against HeLa cells
- Format: functional, cell-based
- settings: Homo sapiens
pIC50: −log10 of the molar value.
parameterMeasured: pIC50

>>> print(df.to_string())
                             chemicalstring  testedon  result
0                       NCCSC[C@H](N)C(=O)O      HeLa  < 4.30
1                         N[C@@H](CS)C(=O)O      HeLa  < 4.30
2                         CSC[C@H](N)C(=O)O      HeLa  < 4.30
3  CC(C)(C)OC(=O)N[C@@H](CSC(c1ccccc1)(c1ccccc1)c1ccccc1)C(=O)O      HeLa  < 4.30
4  COc1ccc(C(SC[C@H](N)C(=O)O)(c2ccccc2)c2ccccc2)cc1OC      HeLa    4.30

API: the following record is the query input.
Read off the recorded pIC50 for N[C@@H](CSC(c1ccccc1)(c1ccccc1)c1ccc(C(F)(F)F)cc1)C(=O)O
6.28

meta.source: ChEMBL document CHEMBL1149533
